target: hCB2 receptor (Homo sapiens); test: Agonism of CB2 by detection of cAMP using HTRF; type: cell-based; details: CHO cells stably expressing CB2 receptor; normalized to DMSO and maximal activation (5 nM CP55940)
Sequence (P34972 whole entry): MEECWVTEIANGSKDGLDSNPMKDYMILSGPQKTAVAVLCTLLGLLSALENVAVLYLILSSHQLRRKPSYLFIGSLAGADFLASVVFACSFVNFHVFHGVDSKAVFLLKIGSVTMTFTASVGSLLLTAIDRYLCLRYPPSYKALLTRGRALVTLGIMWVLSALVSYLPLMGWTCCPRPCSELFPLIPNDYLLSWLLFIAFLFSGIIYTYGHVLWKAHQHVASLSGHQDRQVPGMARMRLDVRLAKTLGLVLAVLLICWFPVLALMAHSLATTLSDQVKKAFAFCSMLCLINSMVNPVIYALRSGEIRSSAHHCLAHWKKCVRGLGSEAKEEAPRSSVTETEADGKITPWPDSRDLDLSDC
Kindly state Emax for each of the entries shown.
Could you give the number and then its unit, please?

Examples with answers:
MOLECULE	Emax
CC(C)(C)c1csc(-c2nn(-c3c[n+]([O-])ccn3)c3c2CC2CCC3O2)n1 (stereo not shown) [Compound 44]	84.6%
O=C(NC1(C(F)(F)F)CC1)c1nn(-c2c[n+]([O-])ccn2)c2c1CC1CCC2O1 (stereo not shown) [Compound 17]	100%
CC(C)(CO)NC(=O)c1nn(-c2cnccn2)c2c1CC1CCC2O1 (stereo not shown) [Compound 11]	99.2%

The record that follows has no Emax shown yet.
Find Emax (hCB2 receptor (Homo sapiens)) for the entry CC(C)(C)c1noc(-c2nn(-c3cnccn3)c3c2CC2CCC3O2)n1 (stereo not shown) [Compound 37]
99.2%
